Numbers sourced from ChEMBL document CHEMBL4513216.

# assayExplanation: Toxicity liver stage against HepG2, at 10uM
# Format: cell-based
# Parameters: test concentration 10 uM, cell line HepG2-A16-CD81EGFP
# conditionLabel: human, HepG2-A16-CD81EGFP cells; read-out: INHIBITION
Listed next: entries and their corresponding cytotoxicity at 10 µM.
readoutKind: cytotoxicity at 10 µM (%)

>>> measvalue("COc1ccc(CN2CCOC[C@H](Oc3cccnc3)C2)cc1")
-4.03
>>> measvalue("CN(C)c1ncc(CNC2CC(=O)N(CCc3cccc(Cl)c3)C2)s1 (stereo not drawn)")
-132
>>> measvalue("O=C(c1ccccn1)N1C[C@H]2CC[C@@H](C1)N(C(=O)c1ccsc1)C2")
3.88
>>> measvalue("CS(=O)(=O)Nc1cccc(C(=O)Nc2ccc3c(c2)C(=O)NC3)c1")
5.91
>>> measvalue("O=c1c2ccc(C(F)(F)F)cc2ncn1CCCN1CCCCC1CO (stereo not drawn)")
-5.98
>>> measvalue("CC(C)COC(=O)N1[C@@H](c2ccco2)[C@@H](CO)C[C@]12CCCCNC2=O")
1.19
>>> measvalue("CCc1cnc(N2CCN(CC(=O)Nc3c(C)n[nH]c3C)CC2)s1")
-2.69
>>> measvalue("c1csc(CN2CCCN(c3ncnc4[nH]ccc34)CC2)c1")
5.51
>>> measvalue("Cn1nccc1CN1CCOC(c2cccc(Nc3ccccn3)n2)C1 (stereo not drawn)")
23.9
>>> measvalue("COCc1cc(CN(C)C(C(=O)O)c2cc(C)c(OC)c(C)c2)n[nH]1 (stereo not drawn)")
1.07
>>> measvalue("Cc1cnn(CC(=O)N2CCCN(c3nc(C)cs3)CC2)c1")
-4.71
>>> measvalue("Cc1cn[nH]c1C1COCCN1C(=O)c1ccc2c(c1)CCCC2 (stereo not drawn)")
-0.21
>>> measvalue("O=C(c1cn(-c2ccccc2Cl)nn1)N1CCCSCC1")
-4.26
>>> measvalue("O=C(CNc1cc(-n2cnnn2)ccc1F)Nc1cc(F)ccc1F")
-4.09
>>> measvalue("COc1ccc(C(C)NC(=O)Cn2ccc(=O)n(C)c2=O)cc1F (stereo not drawn)")
-3.17
>>> measvalue("O=C1CC2(CCN(C(=O)c3ccccn3)C2)Nc2ccccc2N1 (stereo not drawn)")
10.9
>>> measvalue("O=C(c1ccc(-n2cnnc2)cc1)N1CCCC(n2ccnc2)C1 (stereo not drawn)")
-10.7
>>> measvalue("CCN(CC)c1ncnc2c(C)nn(CC)c12")
-2.01
>>> measvalue("CC(C)(C)c1nc(CN(Cc2ccccc2Cl)C2CCCC2)no1")
3.25
>>> measvalue("CC(C)OCc1cccc(NC(=O)N2CCCC(CCC(N)=O)C2)c1 (stereo not drawn)")
3.49
>>> measvalue("Cc1cc(C(=O)CN2CCN(c3nccs3)CC2)c(C)n1C1CC1")
10.6
>>> measvalue("CCc1cnc(N2C[C@@H]3C[C@H](C(=O)N4CCOCC4)[C@H](C2)O3)nc1")
-104
>>> measvalue("CC(C)CN(C)S(=O)(=O)c1ccc(Cl)cc1C#N")
-47.2

* * *

# assayExplanation: Toxicity liver stage against HepG2, at 10uM
# Assay type: cell-based
# Parameters: test concentration 10 uM, cell line HepG2-A16-CD81EGFP
# conditionLabel: human, HepG2-A16-CD81EGFP cells; read-out: INHIBITION
Listed next: entries and their corresponding cytotoxicity at 10 µM.
readoutKind: cytotoxicity at 10 µM (%)

>>> measvalue("COCCN1C(=O)C[C@@H]2[C@H]1CCN2C(=O)COc1ccccc1")
-0.902
>>> measvalue("CC(C)CC(=O)N[C@H](C)c1c(-c2ccc(Cl)cc2)noc1C(=O)O")
4.76
>>> measvalue("CCS(=O)(=O)N1CCN(C(=O)c2cnc3[nH]nc(C)c3c2)CC1")
-5.68
>>> measvalue("CC1CCN(c2ncc(C#N)c(N)n2)CC1")
15.5
>>> measvalue("COc1ccc(OCCN2CCN(Cc3nccn3C)CC2)cc1")
-6.25
>>> measvalue("CC1CCCN(C(=O)c2csc(S(N)(=O)=O)c2)CC1 (stereo not drawn)")
1.52
>>> measvalue("Cc1nc(C)c(C(=O)NCC(c2ccccc2Cl)N2CCOCC2)s1 (stereo not drawn)")
1.4
>>> measvalue("Cc1sc(C(=O)NC(C)C)cc1S(=O)(=O)N(C)C")
-7.84
>>> measvalue("Cn1cc(C(NCc2ccc(F)cc2)c2cccc(F)c2)cn1 (stereo not drawn)")
0.137
>>> measvalue("CCN1CCC2(CCC1=O)CN(c1cnc3ccccc3n1)CCN2C (stereo not drawn)")
1.79
>>> measvalue("O=C(c1cccnc1SCc1ccccc1)N1CC[C@@H](O)C1")
-2.04
>>> measvalue("Cc1nc(CC(=O)N2CCN(c3ccc(N(C)C)cc3)CC2)cs1")
0.236
>>> measvalue("CC(C)N1CCc2c(C(=O)N3CCOCC3)nn(C)c2C1")
-105
>>> measvalue("O=C(Cn1nc2c(cc1=O)CCCC2)N[C@@H](C(=O)O)c1ccccc1")
5.76
>>> measvalue("COCCOCC(=O)N1C[C@@H]2CC[C@H](Oc3ccccc3Cl)[C@@H]2C1")
-10.9
>>> measvalue("Cc1cccc(CN(Cc2ccccn2)S(=O)(=O)N(C)C)c1")
-1.74
>>> measvalue("Cc1cnc(NC(=O)NC(CCO)c2cccs2)s1 (stereo not drawn)")
5.53
>>> measvalue("CCc1n[nH]c(C2CN(C(=O)c3cnns3)CCO2)n1 (stereo not drawn)")
-3.43
>>> measvalue("COCCCN1CC2(CCCN(c3ncc4nc[nH]c4n3)C2)CCC1=O (stereo not drawn)")
-5.64
>>> measvalue("COC1CN(C(=O)NC2CCCC2)CCC(=O)N(C)c2ccccc21 (stereo not drawn)")
-9.35
>>> measvalue("Cc1noc(CNc2c(N3CCCC3)cccc2N2CCCC2)n1")
0.184
>>> measvalue("O=C(Nc1cnccn1)[C@H]1C[C@H]2OCC[C@H]2N(c2ncc(F)cn2)C1")
16.4
>>> measvalue("O=C1CC(NS(=O)(=O)c2ccc(Cl)cc2)CN1 (stereo not drawn)")
6.66
